Listed here are binders together with their documented koff.
experimentalTarget: T1, PSA(67-79)-G0F (human, also: Asn3 N-glycosylated with octasaccharide carrying alpha-1,6 core fucose (G0F))
T1 construct: Synthetic glycopeptide (3.9 kDa as SPR analyte), made on Sieber Amide resin; For the ELISAs a biotinylated form was used (glutamic acid derivative with a PEG3-biotin side chain at the N-terminus); also called PSA(67-79)-GOF; glycopeptide of Formula Ib
T1 peptide: IRN(G0F)KSVILLGRHS-NH2
measurementNotes: SPR, Biacore 8k, 37 C, antibody captured by anti-rabbit Fc, peptide as analyte, Langmuir fit
Procedure: 30 μg/ml of a Fcγ-fragment binding, polyclonal goat anti-Rabbit IgG (GARb-Fcγ, Jackson Laboratories) in 10 mM sodium acetate buffer (pH 4.5) was pre-concentrated in all 16 flow cells, and up to 10000 RU GARb-Fcγ were immobilized according to the manufacturer's instructions using EDC/NHS chemistry. […] The antibody Capture Level (CL) was quantified in response units (RU) for each antibody. […]
Ends that are not written are not given here. * marks the point of attachment. G0F = octasaccharide N-glycan with alpha-1,6 core fucose (Formula Ib, linkages Formula Ic), CC(=O)N[C@@H]1[C@@H](O)[C@H](O[C@@H]2O[C@H](CO)[C@@H](O[C@@H]3O[C@H](CO[C@H]4O[C@H](CO)[C@@H](O)[C@H](O)[C@@H]4O[C@@H]4O[C@H](CO)[C@@H](O)[C@H](O)[C@H]4NC(C)=O)[C@@H](O)[C@H](O[C@H]4O[C@H](CO)[C@@H](O)[C@H](O)[C@@H]4O[C@@H]4O[C@H](CO)[C@@H](O)[C@H](O)[C@H]4NC(C)=O)[C@@H]3O)[C@H](O)[C@H]2NC(C)=O)[C@@H](CO[C@@H]2O[C@@H](C)[C@@H](O)[C@@H](O)[C@@H]2O)O[C@H]1*
Answer format: numeric, s⁻¹ implied, no suffix.

Before answering, review these 2 worked examples.
binder	assayReadout	endpointResult
3H6 (antibody, V domains shown, Rabbit monoclonal IgG (150 kDa); also called anti-1,6fucPSA antibody 3H6) VH: QSLEESGGDLVKPGASLTLTCTASGFSFSSGYDMCWVRQAPGKGLEWIACIYADGSGSTYYASWAKGRFTISKPSSTTVTLQMTRLTAADTATYFCAREGADGPDYGYAAFSLWGPGTLVTVSS VL: DIVMTQTPASVEAAVGGTVTIKCQASQTISSYFSWYQQKPGQPPKLLIYKASSLASGVPSRFKGSGSGTQFTLTISDLECADAATYYCQSFYGSVSSDVGGFAFGGGTEVVVK	koff	0.00536
3B10 (antibody, V domains shown, Rabbit monoclonal IgG (150 kDa); also called anti-1,6fucPSA antibody 3B10) VH: QSLEESGGGLVKPGGTLTLTCKASGFSFSSGYDMCWVRQAPGKGLEWIACIYADGSDNTYYASWAKGRFTISKTSSTTVTLQMTRLTAADTATYFCAREGADNPNYGYAALRLWGPGTLVTVSS VL: DIVMTQTPASVEAPVGGTVTIKCQATQSISSYLSWYQQKPGQPPKLLIYKTSTLASGVPSRFKGSGSGTEFTLTISDLECANAATYYCQSYYGSISSDYGGFAFGGGTEVVVK	koff	0.0121

I am curious: what koff value has been reported for 13C5 (antibody, V domains shown, Rabbit monoclonal IgG (150 kDa); also called anti-1,6fucPSA antibody 13C5) VH: QSLEESGGDLVKPGASLTLTCTASGFSFSSGYDMCWVRQAPGKGLEWIGCIYADGSGTTYYATWAKGRFTISNPSATTVTLQMTRLTAADTATYFCAREGADNPNYGYAALRLWGPGTLVTVSS VL: DIVMTQTPASVSGAVGGTITIKCQASQSISNYFSWYQQKPGQPPKLLIYKTSTLASGVPSRFKGSGSGTEFTLTISDLECADAATYYCQSFWGSGSSDYGGFAFGGGTEVVVK ?
0.00038
